Provide the reported shrunken log2 fold change of each item.
- Test system: Escherichia coli TOP10;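 further: peptides expressed intracellularly from a pBAD plasmid library in pooled LB shake-flask culture, induced with 0.3% L-arabinose, DNA abundance read by NGS, three biological replicates, DESeq2 with apeglm shrinkage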
- procedure_summary: shrunken log2 fold change of peptide-encoding DNA abundance (4.5 h post-induction vs induction); higher = less antimicrobial activity (less host growth inhibition)
- assay_setup: time post-induction: 4.5 h; library: site-saturation at positions 5, 18, 19, 20
Quick one: just the number, no unit, thanks!

q: Consider the sequence RRIRWRPPRLPRPRPRPWPGPRP and give its measured shrunken log2 fold change.
a: 0.217

q: // shrunken log2 fold change lookup, key: RRIRHRPPRLPRPRPRPCDTPRP
a: -0.214

q: Given the entry RRIRKRPPRLPRPRPRPRYTPRP , report its measured shrunken log2 fold change.
a: -0.113

q: Value lookup for shrunken log2 fold change; key = RRIRWRPPRLPRPRPRPVWIPRP
a: 0.142
